Source of measurements: ChEMBL document CHEMBL4811239

System: MDA-MB-231
EXPERIMENT NOTES: Antiproliferative activity against human MDA-MB-231 cells assessed as reduction in cell viability at 100 uM after 72 hrs under hypoxic condition by MTT assay
Format: functional
The source made the active and inactive calls. The calls are words filed in the database; no cut-off is given here.

COMPOUND	Activity
CCOC(=O)C(C(=O)Nc1ccc(S(N)(=O)=O)cc1)C(C)C (stereo unspecified)	inactive
CC(C)(C)C(=O)CNc1cccc(S(N)(=O)=O)c1	inactive
COCC(=O)C(Nc1ccc(S(N)(=O)=O)cc1)C(=O)OC (stereo unspecified)	inactive
CCN(CC)C(=O)CNc1ccc(S(N)(=O)=O)cc1	inactive
CCOC(=O)C(Nc1ccc(S(N)(=O)=O)cc1)c1ccc(Cl)cc1 (stereo unspecified)	30%
Cc1ccc(C(=O)CNc2cccc(S(N)(=O)=O)c2)cc1	inactive
